- System: A549
- EXPERIMENTAL PROTOCOL: NCI tumour cell line growth inhibition, 48 h
Active and inactive are the calls of the source. Rule as the data show it: active = GI50 up to about 1.1 µM and inactive = higher.
READOUT LABEL: GI50

Exam item: Dear colleague, I am looking for the recorded GI50 of the following compound: Cc1ccc(S(=O)(=O)NCCSCCSCCNS(=O)(=O)c2ccc(C)cc2)cc1
Marked response: 30.5 µM (inactive)

Exam item: Also need COC(=O)/C=C1\CCC(C)O1 (stereo not given) , thanks.
Marked response: > 100 µM (inactive)

Exam item: Also need C=C1[C@@](C)([C@@H]2CCCS2)[C@H]2C(C)=C[C@]1(C)n1c(=O)n(-c3ccccc3)c(=O)n12 , thanks.
Marked response: > 100 µM (inactive)

Exam item: Also need CNC(=O)OCC1C2=C(C(=O)C(C)=C(N)C2=O)N2CC3C(N3C)C12OC (stereo not given) , thanks.
Marked response: 1.83 µM (inactive)

Exam item: Also need Cn1c2c(c3ccccc31)CC(=O)N1CCCC(C1)CC21OCCO1 (stereo not given) , thanks.
Marked response: > 100 µM (inactive)

Exam item: Also need S=c1nc2c(c[nH]1)C1c3ccccc3C2c2ccccc21 , thanks.
Marked response: 68.9 µM (inactive)

Exam item: Also need COc1cc2c[n+](C)c3c4cc(OC)c(OC)cc4ccc3c2cc1OC , thanks.
Marked response: > 100 µM (inactive)

Exam item: Also need Cc1cc(S(=O)(=O)NC2=Nc3ccc(Cl)cc3C(c3ccccc3)N2)c(S)cc1Cl (stereo not given) , thanks.
Marked response: 17.8 µM (inactive)

Exam item: Also need CC(C)C.C[N+](C)(C)C.OC(c1ccccc1)(C(F)(F)F)C(F)(F)F.OC(c1ccccc1)(C(F)(F)F)C(F)(F)F.[SiH3-] , thanks.
Marked response: 4.79 µM (inactive)

Exam item: Also need Cc1cn(CCC(N)C(=O)O)c(=O)[nH]c1=O (stereo not given) , thanks.
Marked response: > 100 µM (inactive)

Exam item: Also need CON1C(=O)C2(CCCCC2)C(=O)C12C=CC(C)CC2 (stereo not given) , thanks.
Marked response: > 100 µM (inactive)

Exam item: Also need COc1ccccc1N1CCN(CCCN2C(C(=O)c3ccccc3)=C(O)c3c(C)cc(C)nc3S2(=O)=O)CC1 , thanks.
Marked response: 47.2 µM (inactive)

Exam item: Also need O=C(c1ccccc1)c1c(CC(O)c2ccccn2)n(C(=O)c2ccccc2)c2ccccc12 (stereo not given) , thanks.
Marked response: 25.3 µM (inactive)

Exam item: Also need CCC(C)NC1=NCC(C)S1 (stereo not given) , thanks.
Marked response: > 100 µM (inactive)

Exam item: Also need COc1cccc(-c2nccc3c(OCc4ccccc4)c(OC)c(OC)cc23)c1 , thanks.
Marked response: > 100 µM (inactive)

Exam item: Also need O=C1NN=C2C=C(c3ccc(Cl)cc3)CC(c3cccc(Cl)c3)C12 (stereo not given) , thanks.
Marked response: 16.4 µM (inactive)

Exam item: Also need COP(=O)(O)C(N)Cc1c[nH]c2ccccc12 (stereo not given) , thanks.
Marked response: > 100 µM (inactive)

Exam item: Also need O=C(c1ccco1)C1CC(c2ccc3ccccc3c2O)=NN1 (stereo not given) , thanks.
Marked response: 47 µM (inactive)

Exam item: Also need C=C1C(=O)O[C@H]2C(=O)[C@H](C)CCC[C@@](C)(O)/C=C\C[C@@]3(C)O[C@@H]3C[C@@H]12 , thanks.
Marked response: 19 µM (inactive)

Exam item: Also need CCOC1=NC(C(F)(F)F)(C(F)(F)F)N=C(N2CCOCC2)O1 , thanks.
Marked response: > 100 µM (inactive)

Exam item: Also need Cn1c(O)c(C2=Nc3ccccc3C2=O)c2ccccc21 , thanks.
Marked response: > 100 µM (inactive)

Exam item: Also need C=C(C)C(O)C(O)C[C@@H](C)C1CC[C@]23C[C@]12CCC1[C@@]2(C)CCC(OC(C)=O)C(C)(C)C2CC(OC2OC(CO)C(O)C(O)C2O)[C@]13C (stereo not given in full) , thanks.
Marked response: 50 µM (inactive)

Exam item: Also need CC(C)=C1C(=O)C[C@]2(C)C[C@H]3/C(=C(/C)CCC12)CC[C@@]3(C)O (stereo not given in full) , thanks.
Marked response: > 50 µM (inactive)

Exam item: Also need COC(=O)[C@@H](NC1(c2ccccc2)c2ccccc2-c2ccccc21)[C@H](OC(=O)[C@H]1CCCN1S(=O)(=O)c1ccccc1)C(=O)OC , thanks.
Marked response: > 100 µM (inactive)

Exam item: Also need CCC1(c2ccccc2)Sc2ccccc2-n2cccc2C1=O (stereo not given) , thanks.
Marked response: > 10 µM (inactive)

Exam item: Also need O=CC(O)C(O)C(O)C(O)COP(=O)(O)Cc1ccccc1 (stereo not given) , thanks.
Marked response: > 10 µM (inactive)

Exam item: Also need O=[N+]([O-])C(/C=C(\Cl)[N+](=O)[O-])=C(N1CCOCC1)N1CCOCC1 , thanks.
Marked response: 19.4 µM (inactive)

Exam item: Also need COC(OC)c1cccc2c1C(=O)CCC1(O)c3ccccc3C1C2 (stereo not given) , thanks.
Marked response: > 100 µM (inactive)

Exam item: Also need O=c1oc2c/c(=C\c3ccc([N+](=O)[O-])cc3)c(=O)c3cccc1c3-2 , thanks.
Marked response: > 100 µM (inactive)

Exam item: Also need COCOc1c(C(O[Si](C)(C)C(C)(C)C)c2cnc(Sc3ccccc3)n2C)ccc(OC)c1OC (stereo not given) , thanks.
Marked response: 1.88 µM (inactive)

Exam item: Also need CC1(C)[C@@H](Cn2nnc3c(N)ncnc32)CC[C@@]1(C)CO , thanks.
Marked response: > 100 µM (inactive)

Exam item: Also need COc1ccc([C@]23CCN(S(=O)(=O)c4ccc(C)cc4)[C@H]2[C@H](CO)C2(CC3)OCC(C)(C)CO2)cc1OC , thanks.
Marked response: > 100 µM (inactive)

Exam item: Also need Nc1ccc2nc3n(c2c1)C(c1c(F)cccc1F)SC3 (stereo not given) , thanks.
Marked response: > 100 µM (inactive)

Exam item: Also need CC(C)(C)C1CCC2c3c([nH]c4ccccc34)C3C(=O)N(c4ccc(C#N)cc4)C(=O)C3C2C1 (stereo not given) , thanks.
Marked response: 8.43 µM (inactive)

Exam item: Also need C[N+](C)(C)CC1CCc2ccccc2C1=O (stereo not given) , thanks.
Marked response: 26.3 µM (inactive)
